Each recorded value in this set is attributed to patent US20200164069A1.

system.name: recombinant cynomolgus monkey IL-21 (cynomolgus monkey (Macaca fascicularis), UniProt Q9HBE4 30-162 (human entry), limits assumed)
Sequence (Q9HBE4 other isoform, or with tags, fused parts or gaps limits assumed): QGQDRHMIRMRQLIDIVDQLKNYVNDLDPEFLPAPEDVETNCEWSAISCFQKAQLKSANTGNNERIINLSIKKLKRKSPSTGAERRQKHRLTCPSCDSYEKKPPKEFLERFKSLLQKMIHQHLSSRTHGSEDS
method.summary: cell-based or functional assay
We label by threshold. Values of IC50 in PC differentiation assay (2 nM IL-21) strictly beneath 9 nM are criterion met. Values of 9 nM and up are criterion not met.

Illustrative cases are given below, each with its answer.
binder	label.class
K2Ha-N56Q (antibody, human IgG1, kappa, V domains shown) VH: QVQLVQSGAEVKKPGASVKVSCKASGYTFTDYWMHWVRQAPGQGLEWMGTIDPSDQYTIYSQNFKGRVTMTRDTSTSTVYMELSSLRSEDTAVYYCARYGFAMDYWGQGTLVTVSS VL: DIQLTQSPSSLSASVGDRVTITCRASQDISNFLNWYQQKPGKAVKLLIYYTSRLHSGVPSRFSGSGSGTDYTLTISSLQPEDFATYFCQQGHTLPRTFGGGTKVEIKR	criterion met
K44VHa-N56Q (MEDI7169) (antibody, V domains shown) VH: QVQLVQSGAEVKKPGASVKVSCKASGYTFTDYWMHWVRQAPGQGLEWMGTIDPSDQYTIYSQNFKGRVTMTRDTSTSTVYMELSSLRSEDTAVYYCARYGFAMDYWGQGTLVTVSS VL: DIQLTQSPSSLSASVGDRVTITCRASQDISNFLNWYQQKPGKAVKLLIYYTSRLHSGVPSRFSGSGSGTDYTLTISSLQPEDFATYYCQQGHTLPRTFGGGTKVEIK	criterion met
murine monoclonal antibody 19E3 (antibody, V domains shown, also called 19E3.1) VH: QVQLQQPGSELVMPGASVKMSCKASGYIFTDYWMHWVKQRPGQGLEWIGTIDPSDNYTIYSQNFKGKATLTVDESSSTAYMLLSSLTSEDSAVYFCARYGFAMDYWGQGTSVTVSS VL: DIQLTQTTSSLSASLGDRVTISCRASQDISNFLNWYQQTPDGTVKLLIYYTSRLHSGVPSRFSGSGSGTDYSLTISNLEQEDIATYFCQQGHTLPRTFGGGTKLEIK	criterion met
K44VHa6-N56Q (antibody, IgG1, V domains shown) VH: QVQLVQSGAEVKKPGASVKVSCKASGYTFTDYWMHWVRQAPGQGLEWMGTIDPSDQYTIYSQNFKGRVTMTVDESTSTVYMELSSLRSEDTAVYYCARYGFAMDYWGQGTLVTVSS VL: DIQLTQSPSSLSASVGDRVTITCRASQDISNFLNWYQQKPGKAVKLLIYYTSRLHSGVPSRFSGSGSGTDYTLTISSLQPEDFATYYCQQGHTLPRTFGGGTKVEIKR	criterion met

Take the binder murine monoclonal antibody 9H10 (antibody, V domains shown, also called 9H10.1) VH: EVQLQQFGAEVVKPGASVKMSCKASGYTFTDYNMNWVKQSHEKSLEWIGDIHPKFHSTNYNQKFKGKATLTIDTSSSTAYMELRNLTSEDTAVYYCARVGNYVYFVMDYWGQGTSVTVSS VL: SIVMTQTPKFLLVSAGDRVTITCKASQSVSNDVAWYQQKPGQSPKLLIYYASNRYTGVPDRFSGSGYGTDFTFTISTVQAEDLAVYFCQQDYTSPWTFGGGTKLEIK and say whether its IC50 in PC differentiation assay (2 nM IL-21) is less than 9 nM. criterion not met

Please answer likewise for murine monoclonal antibody 9F11 (antibody, V domains shown, also called 9F11.1) VH: EVELVESGGGLVQPGGSMKLSCAASGFTFSDAWMDWVRQSPEKGLEWVAEIRSEADNHPTYYAESVKGRFTISRDDSKSSVYLQMNSLRAEDSGIYYCTEYDYEGFVHWGQGTLVTVSA VL: DIVLTQSPASLAVSLGQRATISCRASKSVSTYGYSYMHWYQQKPGQPPKLLIYLASNLESGVPARFSGSGSGTDFTLNIHPVEEEDAATYYCQHSRELPLTFGAGTKLELK criterion not met
